Could you please report measured viability, T/C for the items listed next?
# Tested on: 755483-174-R-J1-PDC complex spheroid growth, percent test/control;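 note: spheroids exposed to compounds for seven days before readout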
# testDescription: Anticancer human tumor 755483-174-R-J1-PDC patient-derived rhabdomyosarcoma cell line growth inhibition [Asc]
# measurementSetup: second compound 1 µM; first compound 0.03 µM; stronger effect = lower value
Answers are plain numbers, in %.

[
  {
    "molecule": "Cc1nc(N2CCC3(CC2)COC(C)C3N)c(CO)nc1Sc1ccnc(N)c1Cl (configuration not stated) + CNC(C)C(=O)NC1CN(S(=O)(=O)c2cccc(S(=O)(=O)N3CCC4CCC(C(=O)NC(c5ccccc5)c5ccccc5)N4C(=O)C(NC(=O)C(C)NC)C3)c2)CCC2CCC(C(=O)NC(c3ccccc3)c3ccccc3)N2C1=O",
    "number": 16.9
  }
]

Turning now to a further record.
## Input Would you kindly share the measured viability, T/C for CCN1C(C(=O)NC23CCC(C(=O)O)(CC2)CC3)C(c2cccc(Cl)c2F)C2(C(=O)Nc3cc(Cl)ccc32)C12CCCCC2 (configuration not stated) + Cc1c(S(C)(=O)=O)c(-c2cc(F)cc(N3CCN(c4ccc(NS(=O)(=O)c5ccc(NC(CCN6CCC(C(=O)OCCCP(=O)(O)O)CC6)CSc6ccccc6)c(S(=O)(=O)C(F)(F)F)c5)cc4)CC3)c2)c(-c2ccc(Cl)cc2)n1C(C)C ?
## Output 47

Where these numbers come from: PubChem BioAssay AID1963434
